FYI, the data here is from PubChem BioAssay (NCATS).

assay: qHTS for differential inhibitors of proliferation of Plasmodium falciparum line W2 (AID 1883); conditions: Plasmodium falciparum W2 proliferation inhibition; series mostly up to 28.7 µM;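 also: parasites grown with compound for 72 h before lysis and staining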
Records with an inconclusive call do not appear. Activity calls are given as the source filed them. Calls follow the shape of the dose curve; as a rule, active = well fitted curve in the direction sought with a large enough effect; inconclusive = small, poorly fitted or top-dose-only effect, or another doubt; inactive = no such curve, though single readings can be large or run the other way.
// allowed return values: active, inactive

>>> category("O=C(Nc1cccc(C(=O)Nc2ccc(S(=O)(=O)O)c3cc(S(=O)(=O)O)cc(S(=O)(=O)O)c23)c1)Nc1cccc(C(=O)Nc2ccc(S(=O)(=O)O)c3cc(S(=O)(=O)O)cc(S(=O)(=O)O)c23)c1")
"inactive"
>>> category("C[C@@H](CN1CCC(Cc2ccccc2)CC1)[C@@H](O)c1ccc(O)cc1")
"active"
>>> category("O=C1O/C(=C/Br)CCC1c1cccc2ccccc12 (centres undefined)")
"active"
>>> category("C[N+](C)(CCCCCC[N+](C)(C)CCCN1C(=O)c2cccc3cccc(c23)C1=O)CCCN1C(=O)c2cccc3cccc(c23)C1=O")
"active"
>>> category("Cn1cc(C2=C(c3ccc(Cl)cc3Cl)C(=O)NC2=O)c2ccccc21")
"active"
>>> category("CC(C)Cc1ccc([C@H](C)C(=O)O)cc1")
"inactive"
>>> category("CC[C@@H](C)[C@H]1O[C@]2(CC[C@@H]1C)C[C@@H]1C[C@@H](C/C=C(\\C)[C@@H](O[C@H]3C[C@H](OC)[C@@H](O[C@H]4C[C@H](OC)[C@@H](O)[C@H](C)O4)[C@H](C)O3)[C@@H](C)/C=C/C=C3\\CO[C@@H]4[C@H](O)C(C)=C[C@@H](C(=O)O1)[C@]34O)O2")
"active"
>>> category("CN(C)c1ccc(/C=C2\\C(=O)Nc3ccccc32)cc1")
"active"

Attention now shifts to the item below.
Prompt: What is the recorded call for this compound in the test? CC12C(=O)OC(=O)C1(C)C1CCC2O1 (centres undefined)
Response: active

----------
system: Zika virus NS2B-NS3 protease (unlinked); assay: Optimization of GU AMC qHTS for Zika virus inhibitors: Unlinked NS2B-NS3 protease assay (AID 1347151); conditions: recombinant ZIKV NS2B-NS3 protease, fluorogenic AMC substrate; series mostly up to 52.5 µM;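 also: 0% = no-inhibitor control and -100% = no-enzyme control; nearly all actives have a fitted effect of over 80% in size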
Records with an inconclusive call do not appear. Calls of active or inactive are those of the source. Calls follow the shape of the dose curve; as a rule, active = well fitted inhibition curve with a large enough effect; inconclusive = small, poorly fitted or top-dose-only effect; inactive = no such curve, though single readings can be large or run the other way.
// allowed return values: YES = active, NO = inactive

>>> category("COc1ccccc1CNCCCCCCNCCCCCCCCNCCCCCCNCc1ccccc1OC")
"NO"
>>> category("C#C[C@]1(O)CC[C@H]2[C@@H]3CCC4=Cc5oncc5CC4(C)[C@H]3CCC21C (stereo not given in full)")
"NO"
>>> category("O=C(Nc1ccccc1)c1cc([N+](=O)[O-])ccc1Cl")
"NO"

Prompt: What is the recorded call for this compound in the test? `COC(=O)c1c(C)[nH]c(C)c1C(=O)c1ccccc1Cc1ccccc1`
Response: NO

Prompt: What is the recorded call for this compound in the test? `CN(C)C(N)=NCCC[C@H](N)C(=O)O`
Response: NO

----------
assay: qHTS assay for small molecule antagonists of peroxisome proliferator-activated receptor delta signaling (AID 588535); details: HEK293T PPARd-UAS-bla, beta-lactamase FRET ratio, 18 h; 460 nm channel;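 also: cells co-treated with a PPAR-delta agonist as stimulator during compound exposure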
Records with an inconclusive call do not appear.
Please go through the items and note down their max response.
Answers are plain numbers, in %.

Below, each entry is followed by its recorded max response result.
>>> numeric_value("c1cnc2c(c1)ccc1cccnc12")
-78.3
>>> numeric_value("Nc1cc(-c2ccncc2)c[nH]c1=O")
50.9
>>> numeric_value("Nc1ccc(O)c(C(=O)O)c1")
9.11

# per-item lookup of max response; items listed below
1. S=c1[nH]c2ccccc2s1
2. CN(C)c1ccc(N=NS(=O)(=O)O)cc1
3. O=C(OCc1ccccc1)c1ccccc1
4. Nc1nc2ccc([N+](=O)[O-])cc2s1

Response:
1. 9.56
2. 49.1
3. 18.5
4. 42.6

----------
experiment: qHTS assay to identify inhibitors of the type 1 interferon - major histocompatibility complex class I in skeletal muscle: Counter screen cell viability and HiBit confirmation (AID 1347412); conditions: iHSKM muscle cells + IFN-b, HiBiT or CellTiter-Glo, 24 h; Viability; at 45.9 µM (top of the series); also: % is scaled to controls: 0 for no effect and ±100 for the full control effect; nearly all actives have a fitted effect of over 60% in size
Records with an inconclusive call do not appear.
measured-quantity: activity change, negative = inhibition (%)
Give bare numbers, in %.

>>> numeric_value("N#C/C(=C\\c1ccc(-c2cc(Cl)ccc2Cl)o1)C(=O)Nc1cccc2ncccc12")
-18.8
>>> numeric_value("COc1ccc(/C=C2\\COc3ccc(C)cc3C2=O)cc1O")
-21.6
>>> numeric_value("O=S(=O)(c1cccc2c(I)cccc12)N1CCCNCC1")
-12.4

# per-item lookup of activity change, negative = inhibition; items listed below
1. COC(=O)C1=C(C)NC(C)=C(C(=O)OC)C1c1cccc(NC(=O)NCCCN2CCC(c3cccc(OC)c3)CC2)c1
2. O=C(NOCC1CC1)c1cc(Br)c(F)c(F)c1Nc1ccc(I)cc1Cl
3. O=C(Nc1ccncc1)c1cc([N+](=O)[O-])ccc1Cl

Response:
1. -19.5
2. -18.5
3. -27.4

----------
assay: qHTS of pediatric cancer cell lines to identify multiple opportunities for drug repurposing: Primary screen for Rh30 cells (AID 1347107); settings: Rh30 rhabdomyosarcoma viability, CellTiter-Glo luminescence, 48 h; series mostly up to 46 µM; also: nearly all actives have a fitted effect of over 75% in size
Inconclusive results are not listed. The source made the active and inactive calls. Calls follow the shape of the dose curve; as a rule, active = well fitted cell-killing curve with a large enough effect; inconclusive = small, poorly fitted or top-dose-only effect; inactive = no such curve, though single readings can be large or run the other way.
// allowed return values: True for active, False for inactive

Use these answered entries as a reference point.
>>> category("COc1cc2c3cc1Oc1cc(ccc1O)C[C@@H]1c4c(cc(OC)c(O)c4Oc4ccc(cc4)C[C@@H]3N(C)CC2)CC[N+]1(C)C")
"False"
>>> category("Nc1cc(-c2ccncc2)c[nH]c1=O")
"False"
>>> category("O=c1[nH]c2ccccc2n1CCCN1CCN(C(c2ccccc2)c2ccccc2)CC1")
"False"
>>> category("CC(C(=O)O)c1ccc2c(c1)[nH]c1ccc(Cl)cc12 (stereo unspecified)")
"False"
>>> category("CC(=O)c1ccc(OCC(=O)N2CCCCC2)cc1")
"False"

Prompt: What is the recorded call for this compound in the test? `CN(C)c1ccc(C(=C2C=CC(=[N+](C)C)C=C2)c2ccccc2)cc1`
Response: True

Prompt: What is the recorded call for this compound in the test? `O=C(/C=C/c1ccccc1)NCCO`
Response: False

Prompt: What is the recorded call for this compound in the test? C[N+]1(C)[C@@H]2CC(OC(=O)[C@H](CO)c3ccccc3)C[C@H]1[C@@H]1O[C@@H]12 (stereo partly specified)
Response: False

----------
system: GB4; test: qHTS profiling for inhibitors of Plasmodium falciparum proliferation (AID 504749);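 also: 0% = DMSO vehicle and full inhibition = artemisinin control; nearly all actives have a fitted effect of over 60% in size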; settings: P. falciparum in erythrocytes, SYBR Green DNA, 72 h; series mostly up to 28.7 µM
Results filed as inconclusive are left out. Calls of active or inactive are those of the source. The call rests on the fitted dose curve; in most records, active means well fitted inhibition curve with a large enough effect; inconclusive means small, poorly fitted or top-dose-only effect; inactive means flat fitted curve, though single readings scatter.
// allowed return values: active, inactive

Prompt: What is the recorded call for this compound in the test? `COc1ccc(-c2cc(=S)ss2)cc1`
Response: inactive

Prompt: What is the recorded call for this compound in the test? `N=c1ccn2c(n1)O[C@H]1[C@H](O)[C@@H](CO)O[C@H]12`
Response: inactive

Prompt: What is the recorded call for this compound in the test? `CCCOC(=O)c1ccc(O)cc1`
Response: inactive

Prompt: What is the recorded call for this compound in the test? CCC1C(=O)OCC1Cc1cncn1C (stereo not drawn)
Response: inactive

Prompt: What is the recorded call for this compound in the test? `CN1CCN(c2cc3c(nn2)Oc2ccccc2N3C)CC1`
Response: inactive

Prompt: What is the recorded call for this compound in the test? `Nc1cc(-c2ccncc2)c[nH]c1=O`
Response: inactive

----------
biological target: Hexokinase-4 (Homo sapiens) + Glucokinase regulatory protein (Homo sapiens) (UniProt P35557+Q14397); assay: qHTS assay for inhibitors of recombinant human GCK-GKRP interaction: HTRF assay (AID 743207); settings: recombinant GCK-GKRP HTRF binding, 60 min, with sorbitol-6-phosphate; series mostly up to 57.5 µM;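 also: 0% = DMSO with GCK present and -100% = DMSO wells lacking GCK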
Sequence (P35557 whole entry, looked up): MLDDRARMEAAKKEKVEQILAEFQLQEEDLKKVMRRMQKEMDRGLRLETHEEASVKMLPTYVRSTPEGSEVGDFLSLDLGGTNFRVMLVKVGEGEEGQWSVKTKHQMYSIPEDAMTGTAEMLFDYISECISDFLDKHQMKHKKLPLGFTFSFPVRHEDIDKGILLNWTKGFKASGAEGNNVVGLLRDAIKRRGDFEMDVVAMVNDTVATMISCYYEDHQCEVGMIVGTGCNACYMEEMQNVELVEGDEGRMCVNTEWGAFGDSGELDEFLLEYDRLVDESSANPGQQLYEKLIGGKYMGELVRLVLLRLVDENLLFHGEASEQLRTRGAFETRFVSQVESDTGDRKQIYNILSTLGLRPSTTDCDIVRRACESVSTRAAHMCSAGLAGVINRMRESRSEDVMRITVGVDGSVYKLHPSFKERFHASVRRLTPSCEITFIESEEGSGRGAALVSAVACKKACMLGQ
Sequence (Q14397 whole entry, looked up): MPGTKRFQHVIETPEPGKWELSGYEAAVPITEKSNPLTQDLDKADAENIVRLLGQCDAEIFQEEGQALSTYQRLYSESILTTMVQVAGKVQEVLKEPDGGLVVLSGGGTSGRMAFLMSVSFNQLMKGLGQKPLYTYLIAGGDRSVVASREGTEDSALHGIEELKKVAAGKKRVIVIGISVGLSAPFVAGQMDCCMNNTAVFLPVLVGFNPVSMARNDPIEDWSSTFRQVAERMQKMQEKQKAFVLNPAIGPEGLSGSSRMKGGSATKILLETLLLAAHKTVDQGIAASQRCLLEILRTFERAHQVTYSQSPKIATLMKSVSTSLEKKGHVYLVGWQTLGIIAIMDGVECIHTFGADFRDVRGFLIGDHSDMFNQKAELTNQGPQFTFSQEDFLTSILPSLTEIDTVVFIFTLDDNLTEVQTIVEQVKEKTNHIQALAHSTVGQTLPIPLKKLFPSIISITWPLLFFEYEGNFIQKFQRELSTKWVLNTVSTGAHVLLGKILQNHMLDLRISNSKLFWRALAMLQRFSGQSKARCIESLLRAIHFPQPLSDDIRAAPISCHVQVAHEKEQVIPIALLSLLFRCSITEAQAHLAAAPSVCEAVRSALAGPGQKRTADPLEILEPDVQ
Active and inactive are the calls of the source. The call rests on the fitted dose curve; in most records, active means well fitted curve in the direction sought with a large enough effect; inconclusive means small, poorly fitted or top-dose-only effect, or another doubt; inactive means no such curve, though single readings can be large or run the other way.
// allowed return values: active, inactive

Use these answered entries as a reference point.
>>> category("Nc1ncnc2c1ncn2[C@@H]1O[C@H](COP(=O)(O)CP(=O)(O)OP(=O)(O)O)[C@@H](O)[C@H]1O")
"inactive"
>>> category("CC(N)C(=O)OC(C)(C)Cc1ccc(Cl)cc1 (stereo not given)")
"inactive"
>>> category("O=C(c1ccc(OCCCc2cnc[nH]2)cc1)C1CC1")
"inactive"

Prompt: What is the recorded call for this compound in the test? COc1cccc(OC)c1OCCNCC1COc2ccccc2O1 (stereo not given)
Response: inactive

Prompt: What is the recorded call for this compound in the test? `Cc1nc2sccn2c(=O)c1CCN1CCC(=C(c2ccccc2)c2ccc(F)cc2)CC1`
Response: inactive

----------
target: Muscarinic acetylcholine receptor M1 (Rattus norvegicus); assay: qHTS Assay for Antagonists of Acetylcholine Muscarinic M1 Receptor: Measurement of IP-One Response (AID 944); conditions: CHO-M1 cells, IP-One HTRF, antagonist mode; series mostly up to 46.1 µM; also: nearly all actives have a fitted effect of over 75% in size
Inconclusive results are not listed. Calls of active or inactive are those of the source. Calls come from the whole dose curve; as a rule, active = well fitted inhibition curve with a large enough effect; inconclusive = small, poorly fitted or top-dose-only effect; inactive = no such curve, though single readings can be large or run the other way.
// allowed return values: T = active, F = inactive

>>> category("NCCCS(=O)(=O)O")
"F"
>>> category("O=C1C(SCCO)=C(SCCO)C(=O)c2ccccc21")
"T"

Attention now shifts to the item below.
Prompt: What is the recorded call for this molecule in the test? `CC(=O)SCC[N+](C)(C)C`
Response: F
